# protocol_summary: Lipophilicity, log K at 10 uM after 40 mins by HPLC analysis
# Format: physicochemical
Assign yes (1) to entries whose log K meets or exceeds 0.4; assign no (0) to the rest.

In [3]: df
Out[3]:
                                chem_smiles    group
0  CC1(C)N(CC(=O)OCc2ccccc2)C(=O)[C@@H]2Cc3c([nH]c4ccccc34)CN21   no (0)
1  CC1(C)N2Cc3[nH]c4ccccc4c3C[C@H]2C(=O)N1[C@@H](CCC(N)=O)C(=O)OCc1ccccc1   no (0)
2  C[C@@H](C(=O)OCc1ccccc1)N1C(=O)[C@@H]2Cc3c([nH]c4ccccc34)CN2C1(C)C  yes (1)
3  CC1(C)N2Cc3[nH]c4ccccc4c3C[C@H]2C(=O)N1[C@@H](CC(=O)OCc1ccccc1)C(=O)OCc1ccccc1  yes (1)
4  CC1(C)N2Cc3[nH]c4ccccc4c3C[C@H]2C(=O)N1[C@@H](CCCCNC(=O)OCc1ccccc1)C(=O)OCc1ccccc1  yes (1)

These measurements were taken from ChEMBL document CHEMBL1157623.
